tested on: 885724-159-R-J1-PDC complex spheroid viability; experiment: Anticancer human tumor 885724-159-R-J1-PDC patient-derived pancreatic adenocarcinoma cell line growth inhibition [POLQ]; details: second compound 1 µM; first compound 10 µM; active = viability on the fitted dose curve at most 10% of control; inactive = the rest;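 also: spheroids exposed to compounds for 7 days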
Outcome codes: active, inactive

1) COc1ccc([C@@H](O)c2cc(-c3ncnc4cc(N5CCOCC5)ccc34)c(F)cc2Cl)nn1 + Cc1cccc(N(C)C(=O)C2C(O)CCN2c2nc(C)cc(C(F)(F)F)c2C#N)c1	inactive
2) Nc1ccn(C2OC(CO)C(O)C2(F)F)c(=O)n1 (stereo unspecified) + Nc1ccc(C#CCN(C(=O)Cc2ncc(C(F)(F)F)cc2C(F)(F)F)c2ccc(F)cc2)nn1	inactive
3) COc1cc2cc(C(=O)CCC(=O)O)sc2cc1OC + Cc1cccc(N(C)C(=O)C2C(O)CCN2c2nc(C)cc(C(F)(F)F)c2C#N)c1	inactive
4) O=C(c1cc(Cc2n[nH]c(=O)c3ccccc23)ccc1F)N1CCN(C(=O)C2CC2)CC1 + Nc1ccc(C#CCN(C(=O)Cc2ncc(C(F)(F)F)cc2C(F)(F)F)c2ccc(F)cc2)nn1	inactive
5) C=CC(=O)N1CCN(c2nc(=O)n(-c3c(C)ccnc3C(C)C)c3nc(-c4c(O)cccc4F)c(F)cc23)C(C)C1 (stereo unspecified) + Cc1cccc(N(C)C(=O)C2C(O)CCN2c2nc(C)cc(C(F)(F)F)c2C#N)c1	inactive
6) O=C(c1cc(Cc2n[nH]c(=O)c3ccccc23)ccc1F)N1CCN(C(=O)C2CC2)CC1 + COC1C(OC(N)=O)C(O)C(Oc2ccc3c(O)c(NC(=O)c4ccc(O)c(CC=C(C)C)c4)c(=O)oc3c2C)OC1(C)C	inactive
7) C#Cc1c(F)ccc2cc(O)cc(-c3ncc4c(N5CC6CCC(C5)N6)nc(OCC56CCCN5CC(F)C6)nc4c3F)c12 (stereo unspecified) + COC1C(OC(N)=O)C(O)C(Oc2ccc3c(O)c(NC(=O)c4ccc(O)c(CC=C(C)C)c4)c(=O)oc3c2C)OC1(C)C	inactive
8) O=C(Nc1ccc(O)c(NS(=O)(=O)c2ccc(F)cc2)c1)c1ccc(-c2ccccc2)cc1 + Nc1ccc(C#CCN(C(=O)Cc2ncc(C(F)(F)F)cc2C(F)(F)F)c2ccc(F)cc2)nn1	inactive
9) CC(C)n1c(=O)n(C)c2cnc3cc(F)c(-c4ccc(OCCCN5CCCCC5)nc4)cc3c21 + Cc1cccc(N(C)C(=O)C2C(O)CCN2c2nc(C)cc(C(F)(F)F)c2C#N)c1	inactive
10) C#Cc1c(F)ccc2cc(O)cc(-c3ncc4c(N5CC6CCC(C5)N6)nc(OCC56CCCN5CC(F)C6)nc4c3F)c12 (stereo unspecified) + Cc1cccc(N(C)C(=O)C2C(O)CCN2c2nc(C)cc(C(F)(F)F)c2C#N)c1	inactive
11) COc1cccc2c1C(=O)c1c(O)c3c(c(O)c1C2=O)CC(O)(C(=O)CO)CC3OC1CC(N)C(O)C(C)O1 (stereo unspecified) + Cc1cccc(N(C)C(=O)C2C(O)CCN2c2nc(C)cc(C(F)(F)F)c2C#N)c1	active
12) COc1cc2cc(C(=O)CCC(=O)O)sc2cc1OC + Nc1ccc(C#CCN(C(=O)Cc2ncc(C(F)(F)F)cc2C(F)(F)F)c2ccc(F)cc2)nn1	inactive
13) CC1COCCN1c1cc(-c2ccnn2C)c2ccnc(-c3ccn[nH]3)c2n1 (stereo unspecified) + Nc1ccc(C#CCN(C(=O)Cc2ncc(C(F)(F)F)cc2C(F)(F)F)c2ccc(F)cc2)nn1	inactive
14) COc1cccc2c1C(=O)c1c(O)c3c(c(O)c1C2=O)CC(O)(C(=O)CO)CC3OC1CC(N)C(O)C(C)O1 (stereo unspecified) + COC1C(OC(N)=O)C(O)C(Oc2ccc3c(O)c(NC(=O)c4ccc(O)c(CC=C(C)C)c4)c(=O)oc3c2C)OC1(C)C	active
15) O=C(c1cc(Cc2n[nH]c(=O)c3ccccc23)ccc1F)N1CCN(C(=O)C2CC2)CC1 + Cc1cccc(N(C)C(=O)C2C(O)CCN2c2nc(C)cc(C(F)(F)F)c2C#N)c1	inactive
16) COc1cc(C2c3cc4c(cc3C(OC3OC5COC(C)OC5C(O)C3O)C3COC(=O)C23)OCO4)cc(OC)c1O (stereo unspecified) + COC1C(OC(N)=O)C(O)C(Oc2ccc3c(O)c(NC(=O)c4ccc(O)c(CC=C(C)C)c4)c(=O)oc3c2C)OC1(C)C	inactive
17) O=c1[nH]cc(F)c(=O)[nH]1 + Cc1cccc(N(C)C(=O)C2C(O)CCN2c2nc(C)cc(C(F)(F)F)c2C#N)c1	inactive
18) CCc1cc2c(N3CCc4c(cc(Cn5ccnc5)cc4-c4cn(C)nc4C(F)(F)F)C3=O)cc(C)nc2c(OC)n1 + Nc1ccc(C#CCN(C(=O)Cc2ncc(C(F)(F)F)cc2C(F)(F)F)c2ccc(F)cc2)nn1	inactive
19) CC1COCCN1c1cc(C2(S(C)(=N)=O)CC2)nc(-c2ccnc3[nH]ccc23)n1 (stereo unspecified) + COC1C(OC(N)=O)C(O)C(Oc2ccc3c(O)c(NC(=O)c4ccc(O)c(CC=C(C)C)c4)c(=O)oc3c2C)OC1(C)C	inactive
20) CCc1cc2c(N3CCc4c(cc(Cn5ccnc5)cc4-c4cn(C)nc4C(F)(F)F)C3=O)ccnc2c(OC)n1 + Nc1ccc(C#CCN(C(=O)Cc2ncc(C(F)(F)F)cc2C(F)(F)F)c2ccc(F)cc2)nn1	inactive
21) CC(C)n1c(=O)n(C)c2cnc3cc(F)c(-c4ccc(OCCCN5CCCCC5)nc4)cc3c21 + COC1C(OC(N)=O)C(O)C(Oc2ccc3c(O)c(NC(=O)c4ccc(O)c(CC=C(C)C)c4)c(=O)oc3c2C)OC1(C)C	inactive
